Sourced from patent US11365199B2

Target: FSHR (Homo sapiens, UniProt P23945)
Construct: expressed in transfected cells; host or cells: CHO (Cho-FSHR-LUC-1-1-43)
Sequence (P23945 18-695): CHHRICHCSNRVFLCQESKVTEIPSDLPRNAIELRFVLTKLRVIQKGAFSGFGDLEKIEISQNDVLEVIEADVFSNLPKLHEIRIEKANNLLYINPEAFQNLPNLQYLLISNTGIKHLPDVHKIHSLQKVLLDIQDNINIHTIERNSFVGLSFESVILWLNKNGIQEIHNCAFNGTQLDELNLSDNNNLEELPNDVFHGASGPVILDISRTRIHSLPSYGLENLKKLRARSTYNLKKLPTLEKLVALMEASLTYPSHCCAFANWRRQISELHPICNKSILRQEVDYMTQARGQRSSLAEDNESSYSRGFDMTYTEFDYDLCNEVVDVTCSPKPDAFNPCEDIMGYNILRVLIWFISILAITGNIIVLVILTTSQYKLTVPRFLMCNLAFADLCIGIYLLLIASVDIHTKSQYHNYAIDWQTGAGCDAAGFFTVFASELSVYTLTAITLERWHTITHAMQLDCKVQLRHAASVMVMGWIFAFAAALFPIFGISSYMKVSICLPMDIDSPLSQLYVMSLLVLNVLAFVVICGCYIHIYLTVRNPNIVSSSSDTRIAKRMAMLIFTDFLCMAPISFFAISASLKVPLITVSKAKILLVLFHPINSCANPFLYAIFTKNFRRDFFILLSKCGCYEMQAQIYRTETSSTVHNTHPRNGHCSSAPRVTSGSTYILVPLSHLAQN
Experiment: EC50 of cyclic AMP production in CHO FSHR cells + EC20 FSH (Assay A)
Assay type: cell-based
Conditions: CHO FSHR cells + EC20 FSH, cAMP HTRF; read-out: Assay A: EC50 of cyclic AMP production

{"smiles": "[2H]C([2H])([2H])OC1(CN(C(=O)c2nn(-c3ccsc3)c3c2COc2cc(OC)c(-c4ccn(C)c4)cc2-3)C([2H])([2H])[2H])COC1", "EC50": "< 100 nM"}
{"smiles": "COc1cc2c(cc1-c1ccn(C)c1)-c1c(c(C(=O)NC(C)(CO)CO)nn1-c1ccsc1)CO2", "EC50": "100 to 1000 nM"}
{"smiles": "COc1cc2c(cc1-c1cnn(C)c1)-c1c(c(C(=O)N(C)C(C)(C)C)nn1-c1ccsc1)CO2", "EC50": "< 100 nM"}
{"smiles": "COc1cc2c(cc1-c1cnn(CC3OCCO3)c1)-c1c(c(C(=O)N3CCOCC3(C)C)nn1-c1ccsc1)CO2", "EC50": "< 100 nM"}
